Target: fructose-mediated bovine serum albumin (BSA) glycation (Bos taurus, UniProt P02769)
Sequence (P02769 25-607): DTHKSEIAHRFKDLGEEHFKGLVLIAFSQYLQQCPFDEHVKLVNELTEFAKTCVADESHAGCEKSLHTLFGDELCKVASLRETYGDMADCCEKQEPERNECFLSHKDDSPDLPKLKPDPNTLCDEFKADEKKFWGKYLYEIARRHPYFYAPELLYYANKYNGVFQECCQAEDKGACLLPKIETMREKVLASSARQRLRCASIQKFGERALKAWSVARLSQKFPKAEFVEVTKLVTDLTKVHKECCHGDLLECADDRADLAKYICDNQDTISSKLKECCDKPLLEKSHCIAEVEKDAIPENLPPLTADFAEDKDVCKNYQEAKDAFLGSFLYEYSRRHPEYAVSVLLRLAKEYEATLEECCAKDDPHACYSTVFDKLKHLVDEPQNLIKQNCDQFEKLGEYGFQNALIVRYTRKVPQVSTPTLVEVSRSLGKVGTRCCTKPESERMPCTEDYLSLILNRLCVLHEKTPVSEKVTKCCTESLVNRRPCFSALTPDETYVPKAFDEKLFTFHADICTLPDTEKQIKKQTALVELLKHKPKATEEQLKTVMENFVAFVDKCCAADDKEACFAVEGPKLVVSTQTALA
Assay: Antiglycation assay, fructose-mediated BSA glycation model
Conditions: read-out: Antiglycation activity, inhibition (%)

compound: O=C(O)c1cc(O)c(O)c(O)c1 [Gallic acid (3), gallic acid]
tgt: fructose-mediated bovine serum albumin (BSA) glycation (Bos taurus, UniProt P02769)
inhibition at 12.5 µM: < 0%
--
compound: O=C(O)c1ccc(O)c(Nc2cc(C(=O)O)ccc2O)c1
tgt: fructose-mediated bovine serum albumin (BSA) glycation (Bos taurus, UniProt P02769)
inhibition at 12.5 µM: < 0%
--
compound: O=C(O)C1=C[C@@H](O)[C@@H](O)[C@H](O)C1 [Shikimic acid (2), shikimic acid]
tgt: fructose-mediated bovine serum albumin (BSA) glycation (Bos taurus, UniProt P02769)
inhibition at 12.5 µM: < 0%
